Just for reference, ChEMBL document CHEMBL5107959 is where these values come from.

pEC50 values by entry
Target: UniProt P21554
Test: Agonist activity at CB1 receptor (unknown origin) expressed in human HEK293T cells co-expressing beta-arrestin2 assessed as beta-arrestin2 recruitment using furimazine as substrate by Nano-Glo live cell reagent assay
Type: functional, cell-based
Conditions: read-out: EC50
Reminder that pEC50 means the negative base-10 logarithm of the concentration expressed in mol/L.

// known answers, use as guide
CCCCn1nc(C(=O)N[C@H](C(N)=O)C(C)(C)C)c2ccccc21 7.72
CCCCCn1cc(C(=O)N[C@H](C(N)=O)C(C)C)c2cccnc21 5.38
CCCCCn1cc(C(=O)N[C@H](C(N)=O)C(C)(C)C)c2cccnc21 6.83
CCCCn1cc(C(=O)N[C@@H](Cc2ccccc2)C(N)=O)c2ccccc21 4.81
CCCCn1cc(C(=O)N[C@H](C(N)=O)C(C)C)c2ccccc21 5.48

Could you now look at the following compound, please?
Enquiry: Report pEC50 for `CCCCn1nc(C(=O)N[C@H](C(N)=O)C(C)C)c2ccccc21` please.
Return: 6.73

====

The reader will find reported pEC50 values listed item by item below.
Biological target: Cannabinoid receptor 2 (Homo sapiens)
Assay: Agonist activity at CB2 receptor (unknown origin) expressed in human HEK293T cells co-expressing beta-arrestin2 assessed as beta-arrestin2 recruitment using furimazine as substrate by Nano-Glo live cell reagent assay
Assay type: functional, cell-based
Interpret pEC50 as the negative base-10 log of the concentration measured in mol/L.

Enquiry: For the compound shown here, `CCCCn1cc(C(=O)N[C@@H](Cc2ccccc2)C(N)=O)c2cccnc21` , give the reported pEC50.
Return: 5.44

Enquiry: Try this compound next: `CCCCn1nc(C(=O)N[C@H](C(N)=O)C(C)(C)C)c2ccccc21`
Return: 8.75

Enquiry: How about `CCCCn1cc(C(=O)N[C@H](C(N)=O)C(C)(C)C)c2ccccc21` ?
Return: 8.35

Enquiry: Also check `CCCCn1cc(C(=O)N[C@@H](Cc2ccccc2)C(N)=O)c2ccccc21`
Return: 6.68

Enquiry: How about this compound: `CCCCn1nc(C(=O)N[C@@H](Cc2ccccc2)C(N)=O)c2ccccc21`
Return: 7.77

Enquiry: Also check `CCCCCn1cc(C(=O)N[C@@H](Cc2ccccc2)C(N)=O)c2cccnc21`
Return: 6.12

Enquiry: Input `CCCCCn1cc(C(=O)N[C@H](C(N)=O)C(C)(C)C)c2cccnc21`
Return: 7.65

Enquiry: Queued: `CCCCCn1cc(C(=O)N[C@H](C(N)=O)C(C)C)c2cccnc21`
Return: 6.16

Enquiry: Please give the result for `CCCCCn1cc(C(=O)c2cccc3ccccc23)c2ccccc21` too.
Return: 8.14

Enquiry: Then what about the compound `CCCCn1cc(C(=O)N[C@H](C(N)=O)C(C)C)c2cccnc21` ?
Return: 5.34

Enquiry: Now consider `CCCCn1nc(C(=O)N[C@H](C(N)=O)C(C)C)c2ccccc21` and answer again.
Return: 7.86

Enquiry: // next record `CCCCn1cc(C(=O)N[C@H](C(N)=O)C(C)C)c2ccccc21`
Return: 6.55

Enquiry: Then `CCCCn1cc(C(=O)N[C@H](C(N)=O)C(C)(C)C)c2cccnc21` ?
Return: 6.92

====

Biological target: Cannabinoid receptor 1 (Homo sapiens)
Assay: Agonist activity at human CB1 receptor expressed in mouse AtT20 cells incubated for 60 mins by FLIPR membrane potential assay
Type: functional, cell-based
Rule for this label: Criterion met means EC50 is less than 0.02 µM; Criterion not met means EC50 is at least 0.02 µM.

Recorded results for 3 molecules are shown here.
CCCCn1nc(C(=O)N[C@H](C(N)=O)C(C)(C)C)c2ccccc21 Criterion met
CCCCn1cc(C(=O)N[C@H](C(N)=O)C(C)(C)C)c2ccccc21 Criterion met
CCCCCn1cc(C(=O)N[C@H](C(N)=O)C(C)(C)C)c2cccnc21 Criterion met

Enquiry: Does `CCCCn1cc(C(=O)N[C@@H](Cc2ccccc2)C(N)=O)c2ccccc21` have EC50 strictly under 0.02 µM?
Return: Criterion not met

Enquiry: # repeat for `CCCCn1nc(C(=O)N[C@H](C(N)=O)C(C)C)c2ccccc21`
Return: Criterion met

Enquiry: What do you have for `CCCCCn1cc(C(=O)c2cccc3ccccc23)c2ccccc21` ?
Return: Criterion met

Enquiry: Next record, please: `CCCCCn1cc(C(=O)N[C@H](C(N)=O)C(C)C)c2cccnc21`
Return: Criterion not met

Enquiry: Now try `CCCCn1cc(C(=O)N[C@H](C(N)=O)C(C)(C)C)c2cccnc21` .
Return: Criterion not met

Enquiry: Also `CCCCn1cc(C(=O)N[C@H](C(N)=O)C(C)C)c2ccccc21` ?
Return: Criterion not met

Enquiry: Queued: `CCCCn1cc(C(=O)N[C@H](C(N)=O)C(C)C)c2cccnc21`
Return: Criterion not met

Enquiry: Repeat with `CCCCn1nc(C(=O)N[C@@H](Cc2ccccc2)C(N)=O)c2ccccc21`
Return: Criterion not met

====

Molecular target: Cannabinoid receptor 1 (Homo sapiens, UniProt P21554)
Sequence (P21554 whole entry): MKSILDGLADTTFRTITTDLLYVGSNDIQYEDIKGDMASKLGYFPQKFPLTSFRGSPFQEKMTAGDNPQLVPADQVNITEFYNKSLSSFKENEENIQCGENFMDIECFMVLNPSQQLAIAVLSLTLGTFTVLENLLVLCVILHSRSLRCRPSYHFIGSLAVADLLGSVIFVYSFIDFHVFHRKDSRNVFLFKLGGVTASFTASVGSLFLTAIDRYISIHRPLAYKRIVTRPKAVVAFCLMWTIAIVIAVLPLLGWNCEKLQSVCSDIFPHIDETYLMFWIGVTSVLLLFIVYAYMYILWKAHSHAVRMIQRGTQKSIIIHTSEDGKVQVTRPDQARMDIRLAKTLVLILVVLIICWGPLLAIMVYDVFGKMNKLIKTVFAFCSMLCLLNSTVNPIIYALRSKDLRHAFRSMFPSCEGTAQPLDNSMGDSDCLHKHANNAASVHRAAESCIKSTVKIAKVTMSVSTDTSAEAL
Assay: Agonist activity at CB1 receptor (unknown origin) expressed in human HEK293T cells co-expressing beta-arrestin2 assessed as beta-arrestin2 recruitment using furimazine as substrate by Nano-Glo live cell reagent assay
Assay type: functional, cell-based
Conditions: read-out: EC50
Consider the following molecules and their measured EC50 readings.

Worked examples, 4 molecules total:
CCCCn1cc(C(=O)N[C@H](C(N)=O)C(C)(C)C)c2ccccc21 139 nM
CCCCn1nc(C(=O)N[C@@H](Cc2ccccc2)C(N)=O)c2ccccc21 1170 nM
CCCCn1cc(C(=O)N[C@H](C(N)=O)C(C)(C)C)c2cccnc21 2890 nM
CCCCCn1cc(C(=O)c2cccc3ccccc23)c2ccccc21 35.5 nM

Enquiry: Field request: EC50 | item: `CCCCCn1cc(C(=O)N[C@@H](Cc2ccccc2)C(N)=O)c2cccnc21`
Return: > 100000 nM

====

Consider the following Ki values measured on Cannabinoid receptor 2 (Homo sapiens, UniProt P34972).
Sequence (P34972 whole entry): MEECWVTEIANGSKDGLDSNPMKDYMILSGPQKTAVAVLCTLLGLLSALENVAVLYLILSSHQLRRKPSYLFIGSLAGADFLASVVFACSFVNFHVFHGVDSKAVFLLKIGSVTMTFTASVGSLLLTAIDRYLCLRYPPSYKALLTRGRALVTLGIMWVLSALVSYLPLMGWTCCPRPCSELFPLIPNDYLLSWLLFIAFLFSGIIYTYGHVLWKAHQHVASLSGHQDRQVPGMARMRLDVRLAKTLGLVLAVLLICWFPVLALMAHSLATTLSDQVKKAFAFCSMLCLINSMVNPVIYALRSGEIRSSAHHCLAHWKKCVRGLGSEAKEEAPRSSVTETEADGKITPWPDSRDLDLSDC
Report as a plain number; the unit nM is understood.

CCCCn1cc(C(=O)N[C@H](C(N)=O)C(C)(C)C)c2cccnc21 40.7
CCCCn1nc(C(=O)N[C@@H](Cc2ccccc2)C(N)=O)c2ccccc21 39.8

Enquiry: # query: Ki of entry `CCCCn1cc(C(=O)N[C@H](C(N)=O)C(C)(C)C)c2ccccc21`
Return: 1.32

Enquiry: Now the same for `CCCCCn1cc(C(=O)N[C@H](C(N)=O)C(C)(C)C)c2cccnc21`
Return: 20.4

Enquiry: // same read-out, input: `CCCCCn1cc(C(=O)N[C@H](C(N)=O)C(C)C)c2cccnc21`
Return: 251

Enquiry: Again, but for `CCCCn1cc(C(=O)N[C@@H](Cc2ccccc2)C(N)=O)c2cccnc21`
Return: 2190

Enquiry: Same question, `CCCCCn1cc(C(=O)c2cccc3ccccc23)c2ccccc21` this time
Return: 9.55

Enquiry: Next record, please: `CCCCCn1cc(C(=O)N[C@@H](Cc2ccccc2)C(N)=O)c2cccnc21`
Return: 794

Enquiry: Here is the next molecule: `CCCCn1cc(C(=O)N[C@H](C(N)=O)C(C)C)c2cccnc21`
Return: 891

Enquiry: `CCCCn1nc(C(=O)N[C@H](C(N)=O)C(C)C)c2ccccc21` , same question.
Return: 6.46

Enquiry: Note, next up: `CCCCn1cc(C(=O)N[C@@H](Cc2ccccc2)C(N)=O)c2ccccc21`
Return: 148

Enquiry: Another molecule: `CCCCn1nc(C(=O)N[C@H](C(N)=O)C(C)(C)C)c2ccccc21`
Return: 0.912

Enquiry: Try the molecule `CCCCn1cc(C(=O)N[C@H](C(N)=O)C(C)C)c2ccccc21`
Return: 77.6

====

Consider compounds characterized by their Ki with Cannabinoid receptor 1 (Homo sapiens).
Only the number, expressed in nM, is required.

# example entries with known answers
CCCCn1nc(C(=O)N[C@H](C(N)=O)C(C)(C)C)c2ccccc21 0.299
CCCCn1cc(C(=O)N[C@H](C(N)=O)C(C)(C)C)c2ccccc21 1.34
CCCCn1cc(C(=O)N[C@@H](Cc2ccccc2)C(N)=O)c2ccccc21 307

Enquiry: Recorded Ki for `CCCCn1nc(C(=O)N[C@@H](Cc2ccccc2)C(N)=O)c2ccccc21` , please?
Return: 25.1

Enquiry: What do we get for `CCCCCn1cc(C(=O)N[C@H](C(N)=O)C(C)C)c2cccnc21` ?
Return: 49.5

====

Biological target: Cannabinoid receptor 2 (Homo sapiens, UniProt P34972)
Assay: Agonist activity at CB2 receptor (unknown origin) expressed in human HEK293T cells co-expressing beta-arrestin2 assessed as beta-arrestin2 recruitment by measuring maximal luminescence using furimazine as substrate at 100 uM by Nano-Glo live cell reagent assay relative to CP55940
Assay type: functional, cell-based
Conditions: filed as agonist
measuredEndpoint: Emax (%)
Entry rule: numbers only, all in %.

Enquiry: I'd like to know its Emax. The compound in question is `CCCCn1cc(C(=O)N[C@H](C(N)=O)C(C)(C)C)c2cccnc21`
Return: 85

Enquiry: Next: `CCCCCn1cc(C(=O)c2cccc3ccccc23)c2ccccc21`
Return: 58

Enquiry: Note, next up: `CCCCn1nc(C(=O)N[C@H](C(N)=O)C(C)C)c2ccccc21`
Return: 91

Enquiry: Try this compound next: `CCCCn1cc(C(=O)N[C@H](C(N)=O)C(C)C)c2ccccc21`
Return: 94

Enquiry: Then this compound: `CCCCn1nc(C(=O)N[C@@H](Cc2ccccc2)C(N)=O)c2ccccc21`
Return: 71

Enquiry: // same read-out, input: `CCCCn1nc(C(=O)N[C@H](C(N)=O)C(C)(C)C)c2ccccc21`
Return: 83

Enquiry: Do the same for `CCCCCn1cc(C(=O)N[C@H](C(N)=O)C(C)C)c2cccnc21` please
Return: 70

Enquiry: For `CCCCCn1cc(C(=O)N[C@H](C(N)=O)C(C)(C)C)c2cccnc21` then?
Return: 102

Enquiry: Check `CCCCn1cc(C(=O)N[C@@H](Cc2ccccc2)C(N)=O)c2ccccc21` too.
Return: 76

Enquiry: Now the same for `CCCCn1cc(C(=O)N[C@H](C(N)=O)C(C)(C)C)c2ccccc21`
Return: 92

Enquiry: Next: `CCCCn1cc(C(=O)N[C@H](C(N)=O)C(C)C)c2cccnc21`
Return: 88

Enquiry: Try `CCCCCn1cc(C(=O)N[C@@H](Cc2ccccc2)C(N)=O)c2cccnc21` next.
Return: 52

Enquiry: Please answer likewise for `CCCCn1cc(C(=O)N[C@@H](Cc2ccccc2)C(N)=O)c2cccnc21`
Return: 53
